Measurement Notes: yeast display, Sf9 membrane polyspecificity reagent, FACS + sequencing; frameworks hold sequencing errors
Reported Metric: polyreactivity (PSR sort gate)

Study these solved cases before continuing.
QVQLVESGGGLVQAGGSLRLSCSASGRISNAMGWYRQAPGKERELVATINSGASTNYADSVKGRFTISRDNAKNTVYLQMNSLKPEDTAVYYCNVAYVYGSFRRRPMGYLGQGTQVTVSS | high polyreactivity
QVQLVESGGGLVQAGGSLRLTCAASGSTFVWYAMGWSRQAPGKEREFVATISWSDGSTYYADSVKGRFTISRDNAKNTVYLQMNSLKPEDTAVYYCASDVDRFFTYKYDYWGQGTQVTVSS | low polyreactivity
QVQLVESGGGLVQAVSSLRLSCAASGYIFDRNAMGWYRRAPGKERELVAAITKRGGITYYADSVKGRFTISRDNAKNTVYLQMNSLKPEDTAVYYCAAKTLYNSGTQDRAMGYWGQGTQVTVSS | high polyreactivity
QVQLVESGGGLVQAGGRLRLSCAASGRTFYSYTMGWYRPAPGKERELVAAIRYSGDRTYYADSVKGRFTISRDNAKNTVDLQMNSLKPEDTAVYYCGKAAPYPGSFYYWGQGTQVTVSS | low polyreactivity

Kindly review the next sequence as well.
*Q* I am curious: what polyreactivity (PSR sort gate) value has been reported for QVQLVESGGGLVQAGGSLRLSCAASGFIFRYYAMGWYRQAPGKERELVAAISSGGGTTYADSVKGRFTISRDNAKNTVYLQMNSLKPEDTAVYYCAAVSYYARYTYGYDYWGQGTQVTVSS ?
*A* high polyreactivity
